Biological target: HLA-A*02:01
Experiment: IEDB peptide-MHC binding, purified MHC/competitive/radioactivity; filed as Kd, often an IC50 or EC50 that approximates it; bounds were set here for any values at or beyond the usual limits of such assays
Settings: source organism: Hepatitis B virus subtype adw2
experimental-endpoint: Kd

Quote Kd with test system HLA-A*02:01 for QAFTFSPTYK
≥ 35 µM

----------
Biological target: HLA-A*02:01
Experiment: IEDB peptide-MHC binding, purified MHC/competitive/radioactivity; filed as Kd, often an IC50 or EC50 that approximates it; bounds were set here for any values at or beyond the usual limits of such assays
Details: source organism: Dengue virus 3 China/80-2/1980
experimental-endpoint: Kd (nM)
Write down the numeric answer in nM and omit the unit.

# chain-sequence, test-value
records = [
    ("MMMLPATLA", 27.6),
]

# return recorded Kd for entry SLCLMMMLPA
65.7

----------
Target: HLA-B*18:01
Test: IEDB peptide-MHC binding, purified MHC/direct/fluorescence; filed as Kd, often an IC50 or EC50 that approximates it; bounds were set here for any values at or beyond the usual limits of such assays
Settings: source organism: Mycobacterium tuberculosis
pKd: −log10 of the molar value.
pKd listing for selected sequences.

# chain-sequence, assayed-target, pKd
data = [
    ("RVEESRARL", "HLA-B*18:01", "≤ 4.70"),
]

Now for a further sequence.
Give pKd for QQDTNSAGL
≤ 4.70

----------
Biological target: HLA-B*44:02
Experiment: IEDB peptide-MHC binding, purified MHC/competitive/radioactivity; filed as Kd, often an IC50 or EC50 that approximates it; bounds were set here for any values at or beyond the usual limits of such assays
Details: source organism: SARS coronavirus Tor2
experimental-endpoint: Kd

Recall the reported Kd of YDYYRYNLPT when tested on HLA-B*44:02.
≥ 24800 nM

----------
Target: HLA-A*29:02
Assay: IEDB peptide-MHC binding, purified MHC/competitive/fluorescence; filed as Kd, often an IC50 or EC50 that approximates it; bounds were set here for any values at or beyond the usual limits of such assays
Settings: source organism: Escherichia coli 536
experimental-endpoint: Kd

Lab note: record Kd of QTDNDIWFW tested on HLA-A*29:02.
≥ 20 µM

----------
Biological target: HLA-B*53:01
Assay: IEDB peptide-MHC binding, purified MHC/competitive/radioactivity; filed as Kd, often an IC50 or EC50 that approximates it; bounds were set here for any values at or beyond the usual limits of such assays
Settings: source organism: Dengue virus 1 Brazil/97-11/1997
# pKd per record follows
// pKd: -log10(molar conc.)

Observe how each entry below is paired with its result.
# chain-sequence, test-value
rows = [
    ("PPTAGILARW", 4.99),
    ("FVEGLSGATW", 7.84),
    ("CPTQGEATL", 7.70),
    ("LLIMGQLTW", 6.47),
]

Now, please, on to the next sequence.
Look up and state reported pKd for IAMTDTTPF
6.76

----------
Target: HLA-A*30:01
Assay: IEDB peptide-MHC binding, purified MHC/competitive/radioactivity; filed as Kd, often an IC50 or EC50 that approximates it; bounds were set here for any values at or beyond the usual limits of such assays
Details: source organism: Dengue virus 3 Martinique/1243/1999
experimental-endpoint: pKd
By convention, pKd is the negative base-10 log of a molar concentration.

Enter measured pKd, system HLA-A*30:01, for the sequence shown: MVHQIFGSA
7.53
